# MEASURED TARGET: G-protein coupled bile acid receptor 1 (Homo sapiens, UniProt Q8TDU6)
# Sequence (Q8TDU6 whole entry): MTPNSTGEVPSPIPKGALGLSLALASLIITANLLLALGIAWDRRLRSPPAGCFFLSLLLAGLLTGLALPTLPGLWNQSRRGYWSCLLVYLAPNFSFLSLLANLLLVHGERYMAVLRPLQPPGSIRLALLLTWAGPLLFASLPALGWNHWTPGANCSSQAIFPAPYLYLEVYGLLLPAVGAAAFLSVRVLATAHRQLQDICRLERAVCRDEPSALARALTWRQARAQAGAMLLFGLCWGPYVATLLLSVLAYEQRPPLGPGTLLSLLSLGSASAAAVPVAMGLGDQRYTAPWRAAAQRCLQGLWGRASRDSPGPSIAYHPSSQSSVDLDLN
# METHOD SUMMARY: Positive allosteric modulator activity at human TGR5 expressed in HEK293T cells assessed as increase in cAMP accumulation incubated for 1 hr at 37 degC and further incubated for 1 hr at room temperature by glosensor cAMP accumulation assay
pEC50: −log10 of the molar value.
MEASUREMENT NAME: pEC50

[
  {
    "SMILES REPR": "CO[C@@H]1C[C@@H]2C[C@H](O)CC[C@]2(C)[C@H]2C[C@H](O)[C@]3(C)[C@@H]([C@H](C)CCC(=O)OC4CCCC4)CC[C@H]3[C@H]12",
    "pEC50": 4.66
  },
  {
    "SMILES REPR": "CO[C@@H]1C[C@@H]2C[C@H](O)CC[C@]2(C)[C@H]2CC(=O)[C@]3(C)[C@@H]([C@H](C)CCC(=O)OCC4CCCC4)CC[C@H]3[C@H]12",
    "pEC50": 4.21
  }
]

[a] CO[C@@H]1C[C@@H]2C[C@H](O)CC[C@]2(C)[C@H]2C[C@H](O)[C@]3(C)[C@@H]([C@H](C)CCC(=O)OCc4ccccc4)CC[C@H]3[C@H]12
[b] CO[C@@H]1C[C@@H]2C[C@H](O)CC[C@]2(C)[C@H]2CC(=O)[C@]3(C)[C@@H]([C@H](C)CCC(=O)OC4CC4)CC[C@H]3[C@H]12
[c] CO[C@@H]1C[C@@H]2C[C@H](O)CC[C@]2(C)[C@H]2CC(=O)[C@]3(C)[C@@H]([C@H](C)CCC(=O)OC4CCCC4)CC[C@H]3[C@H]12
Arrange the 3 entries by pEC50 so the values rise. A ranking is expressed here by listing the labels in the requested order.
a, c, b
